Where do these numbers come from? They come from PubChem BioAssay (NCI).

Tested on: HL-60(TB) leukemia
procedure_text: NCI-60 one-dose screen, 48 h
conditions_used: 10 µM unless noted
The panel holds about 83,000 compounds, 20% with a hit somewhere; the sample as a whole holds those more often. Calls of active or inactive are those of the source. How the source made its calls: active means growth percent below 10; inactive means the rest.
Labels: active, inactive

>>> class_label("CCCCCC(=O)N(CCCC)CCCC")
"inactive"
>>> class_label("CCCCC1Nc2nc(SC)n(C)c(=O)c2CN(Cc2ccccc2)C1=O (stereo not given)")
"inactive"
>>> class_label("CCCCCCCCCCCCCCCCCCOc1ccccc1CC(=O)OCC[N+](CC)(CC)CC")
"active"
>>> class_label("CCCOc1ccc2c(c1)CC[C@@H]1[C@@H]2CC[C@@]2(C)[C@H]1CC[C@]2(C)O")
"inactive"
>>> class_label("CSc1nc2ncc([N+](=O)[O-])c(=O)n2[nH]1")
"inactive"
>>> class_label("CC(Br)c1nc2ccccc2cc1C(N)=O (stereo not given)")
"inactive"
>>> class_label("C=C(Cl)COC(=O)C(C)(C)O")
"inactive"
>>> class_label("COc1ccc(-c2ccc(-c3ccc(C(=N)N)s3)s2)cc1Cl")
"active"
>>> class_label("Cn1cc(-c2nc3c(F)cc4[nH]ncc4c3c3c2CCCC3)c(C(F)F)n1")
"inactive"
>>> class_label("c1ccc(-c2n(Cc3ccc4ccccc4n3)cc[n+]2Cc2ccc3ccccc3n2)cc1")
"active"
>>> class_label("O=C(CNC(=O)c1cccc2ccccc12)Nc1ccccc1Cc1ccccc1")
"active"
>>> class_label("COc1cc2c(=O)n(CC3CCCCC3)c3c4cc[nH]c4ncc3c2cc1OC")
"inactive"
>>> class_label("Oc1ccc2c(c1)CCc1ccccc1-2")
"inactive"
>>> class_label("O=S(=O)(NCCNc1nccc(-c2c(-c3cccc(O)c3)nc3occn23)n1)c1cccc(F)c1")
"inactive"
>>> class_label("CC(C)(C)c1ccc(C2CC(=O)C3=C(C2)Nc2ccccc2N(C(=O)c2ccccc2Cl)C3c2ccc(F)cc2)cc1 (stereo not given)")
"active"
>>> class_label("COc1ccc2cc(-c3nc4ccccc4[nH]3)c(=O)oc2c1")
"inactive"
>>> class_label("C[C@H]1[C@H](C)CC[C@]2(C(=O)OCCOCCOCC[P+](c3ccccc3)(c3ccccc3)c3ccccc3)CC[C@]3(C)C(=CC[C@@H]4[C@@]5(C)CC[C@H](OC(=O)C(Cl)Cl)C(C)(C)[C@@H]5CC[C@]43C)[C@H]12")
"active"
>>> class_label("CCN=Cc1c(O)c(O)c(C(C)C)c2cc(C)c(-c3c(C)cc4c(C(C)C)c(O)c(O)c(C=NCC)c4c3O)c(O)c12")
"inactive"
>>> class_label("CC1(C)CC(=O)C2=C(C1)Oc1nc(N)c(C#N)c(N)c1C2c1ccc(F)cc1 (stereo not given)")
"inactive"
>>> class_label("COc1cc([C@@H]2c3cc4c(cc3[C@H](O)[C@H]3COC(=O)[C@H]23)OCO4)cc(OC)c1OC")
"active"

----------
Tested on: HL-60(TB) leukemia
procedure_text: NCI-60 one-dose screen, 48 h (100 = growth as untreated, 0 = no growth, -100 = all killed)
conditions_used: 10 µM unless noted
About 83,000 compounds went through this panel and 20% of them were active in at least one assay; those are over-represented in the sample as a whole.
Quick reference: growth of the listed items.
recorded_metric: growth (%)

>>> reported("c1ccc(C2=Nc3ccccc3SC2)cc1")
107
>>> reported("COc1ccc(-c2c(-c3ccc(OC)c(O)c3)cnc3ncnn23)cc1")
106
>>> reported("C[C@@H]1CN(c2nc3c(cc2F)c(=O)c(C(=O)O)cn3C(C)(C)C)C[C@H](C)N1")
97
>>> reported("COc1ccn2c(C(C)=O)cc(C(=O)c3ccc4c(c3)Sc3ccccc3N4)c2c1")
-9.97
>>> reported("CC(C)Cn1c2c(c(=S)[nH]c1=O)CCC2")
107
>>> reported("C=C[C@@]1(C)CC(=O)[C@@H](C(C)(C)c2cn(C)c3ccc(Br)cc23)C[C@@H]1O[Si](C)(C)C(C)(C)C")
106
>>> reported("Cc1nc2sc(C(=O)Nc3cccc(Cl)c3C)c(N)c2cc1C(=O)/C=C/c1ccccc1")
2.75
>>> reported("CC(C)OCC1CO1 (stereo unspecified)")
103
>>> reported("CCCCCCCCC/C(=N\\NC(=O)c1ccncc1)c1ccc(O)c(O)c1O")
0.166
>>> reported("O=C(CCl)Nc1ccc2c(Nc3cc(O)ccc3Cl)ncnc2c1")
-53.2
>>> reported("O=C1c2ccccc2-c2ccccc2C1(Cl)Cl")
-39.6

----------
Test system: ACHN renal
procedure_text: NCI-60 one-dose screen, 48 h (100 = growth as untreated, 0 = no growth, -100 = all killed)
conditions_used: 10 µM unless noted
This is part of a sample that, as a whole, favours compounds with a hit. Of some 83,000 tested, about 20% had one in any assay.
recorded_metric: growth (%)

>>> reported("Fc1ccc(C2=NN(c3ccccc3)C(c3sc(N(CCCl)CCCl)nc3Cl)C2)cc1 (configuration not stated)")
79.4
>>> reported("Cn1cnnc1[S-].[Au+].c1ccc([PH+](c2ccccc2)c2ccccc2)cc1")
-42.3
>>> reported("CCOC(=O)Nc1cc(Cl)c([N+](=O)[O-])c(NC(=O)OCC)n1")
53.6
>>> reported("Nc1cccc(CC(=O)Nc2ccc(S(=O)(=O)F)cc2)c1")
112
>>> reported("c1cnc2c(c1)ccc1ncccc12")
90.7
>>> reported("C[CH2][Pb]([CH2]C)([CH2]C)[O]C(=O)COC")
12.7
>>> reported("ClCCN(CCCl)c1ccc(C=NCCc2c[nH]c3ccccc23)cc1")
44.5
>>> reported("C1CNC2CCCC2C1 (configuration not stated)")
103
>>> reported("O=C(O)C1[O][Sb][O]C1C(=O)O (configuration not stated)")
106
>>> reported("Cc1cccc(N(C)c2cccc3c2C(=O)[Se]C3)c1C")
54
>>> reported("[Cl][Hg][n]1cnc2c(Cl)c(Cl)c(Cl)cc21")
97.9
>>> reported("CCCCCN(CCCCC)CC(O)c1ccc(C)c(Cl)c1 (configuration not stated)")
92.7
>>> reported("O=S(=O)(c1ccc(Cl)cc1)C(Cl)(Cl)Cl")
26.1
>>> reported("CCC(CO)NC1CCCCC1 (configuration not stated)")
84.7
>>> reported("CC1(C)N=C(N)N=C(N)N1c1ccc(CCCCc2ccc(S(=O)(=O)F)cc2)c(Cl)c1")
22.1
>>> reported("CCCCNCCc1ccccn1")
101
>>> reported("OC1(c2ccccc2F)c2ccccc2C2=NCCN21 (configuration not stated)")
114
>>> reported("Nc1nc(N)c(-c2ccc(Cl)c(Cl)c2)c(/C=C/c2ccc(S(=O)(=O)F)cc2)n1")
67.8
>>> reported("CSc1ccccc1NP1(=O)OCC(C)([N+](=O)[O-])CO1 (configuration not stated)")
97.5
>>> reported("COC(=O)C1CC2c3ccccc3C1c1ccccc12 (configuration not stated)")
97.9
>>> reported("CC(=O)O[C@H]1CC[C@H]2[C@@H]3CC[C@H]4CC=C(C)C[C@]4(C)[C@H]3CC[C@]12C")
96.5
>>> reported("CNC(=O)Oc1cccc(N(C)C)c1")
104
>>> reported("CCC(C)(C)O")
103
>>> reported("CC(C)(C)[Si](C)(C)OC1[C@@H](O[Si](C)(C)C(C)(C)C)[C@@H](CNC(=O)NC(=O)CF)O[C@H]1n1cnc2c(NC(=O)Nc3ccccc3)ncnc21 (some centres not stated)")
71.8
>>> reported("CNC(=O)Oc1cccc(OC)c1")
109
>>> reported("CO[C@@H]1[C@H](OC(=O)NC(=O)CCl)CC[C@]2(CO2)[C@H]1[C@@]1(C)O[C@@H]1CC=C(C)C")
60.7
>>> reported("FC(F)=C(F)c1ccccc1")
110
>>> reported("C/C1=C/C(=O)O[C@@H]2C[C@@H](CC[C@H](C)/C=C\\C=C\\CC1)O[C@@](OCCc1ccccc1)([C@@H]1CSC(=O)N1)C2")
7.46
>>> reported("COc1ccc(C2=NN(c3ccccc3)C(c3sc(N(CCCl)CCCl)nc3Cl)C2)cc1 (configuration not stated)")
82.6
>>> reported("CC(=O)C1C(=O)N(C)C(=O)N(C)C1=O")
95.4
>>> reported("Cc1cc([N+](=O)[O-])c(Cl)cc1NS(=O)(=O)c1ccccc1")
83.1
>>> reported("N#C[Se]CCN1C(=O)C2C(C1=O)[C@H]1C=C[C@@H]2S1 (some centres not stated)")
-2.15
>>> reported("CC12CCC(=O)C=C1CCC1C2CCC2(C)C(C(=O)COC(=O)Cc3ccc(N(CCCl)CCCl)cc3)CCC12 (configuration not stated)")
40.3
>>> reported("O=C(/C=C/c1ccccc1)N[C@@H](CO)Cc1cnc[nH]1")
96.4
>>> reported("Oc1ccc2c3c1O[C@H]1c4[nH]c5ccccc5c4C[C@@]4(O)C(C2)N(CC2CC2)CC[C@]314")
89.7
>>> reported("N#C[Se]CCCNS(=O)(=O)C1CC2C=CC1C2 (configuration not stated)")
-67
>>> reported("COc1cc(CNCCc2ccc(Cl)cc2)cc(OC)c1O")
75.6
>>> reported("COc1cc(NCCCCCN=C(N)N)c2ncccc2c1")
105
>>> reported("Nc1ccc(N)c2c1Oc1ccccc1O2")
94.7
>>> reported("CCOc1c(Cl)cc(CNC(C)C(O)c2ccccc2)cc1OC (configuration not stated)")
76.8
>>> reported("O=[As]c1ccc(C(=O)c2ccc(Oc3ccccc3)cc2)cc1 (configuration not stated)")
-100
>>> reported("ClCCN(CCCl)c1nc(Cl)c(C2CC(c3ccc(Cl)cc3)=NN2c2cc(Cl)cc(Cl)c2)s1 (configuration not stated)")
106
>>> reported("O=C1NC2(CCNCC2)Nc2ccccc21")
110
>>> reported("O=C(CI)Nc1ccc(Br)cc1")
-79.8
>>> reported("O1[As]2O[As]3O[As]1O[As](O2)O3")
28
>>> reported("O=C(O)CNC(=O)c1ccccc1")
102
>>> reported("C[C@]12C[C@H](O)[C@H]3[C@@H](CCC4=CC(=O)CC[C@@]43C)[C@@H]1CC[C@@H]2O")
101
